Quick reference for inhibition among some molecules
Target: Maternal embryonic leucine zipper kinase (Homo sapiens);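 further: reported figure is the mean percent inhibition of MELK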
Conditions: at 0.1 µM
measurement-kind: inhibition (%)

• COc1ccc(-c2oc3ncnc(N)c3c2-c2ccc(NC(=O)Nc3cc(C(F)(F)F)ccc3F)cc2)cc1 = 4.39
• N#Cc1c(NC(=O)CN2CCOCC2)sc2c1CCCC2 = 3.07
• COC(=O)Nc1nc2ccc(Oc3ccc(NC(=O)Nc4cccc(Cl)c4)cc3)cc2[nH]1 = 1.24
• CN(C)CCOc1ccc(-c2nc(-c3ccncc3)c(-c3ccc4c(c3)CC/C4=N\O)[nH]2)cc1 = 1.61
• COc1ccc2[nH]c3c4[nH]c5ccc(OC)cc5c4c4c(c3c2c1)C(=O)NC4=O = 22.3
• COc1cc(/C=N/Nc2ncnc3[nH]ncc23)ccc1O = 15.3
• c1ccc(COc2ccc(Nc3ncnc4ccc(-c5ccco5)cc34)cc2)cc1 = 0.14
• CCn1cc(-c2ccnc3[nH]ccc23)c(-c2cccc(NC(=O)Nc3ccc(OCc4ccccc4)cc3)c2)n1 = -3.14
• CS(=O)(=O)CCNCc1coc(-c2ccc3ncnc(Nc4ccc(OCc5ccccc5)cc4)c3c2)c1 = 3.52

====

Target: Receptor-type tyrosine-protein kinase FLT3 (Homo sapiens);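 further: mean inhibition value from the GSK PKIS kinase screening set, with the assay run by Nanosyn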
Details: at 0.1 µM
Quick reference for inhibition among some molecules
measurement-kind: inhibition (%)

• Cc1cccc(Nc2ncc(-c3ccccc3)o2)c1 = 39.8
• COc1cc2ncn(-c3cc(OCc4ccccc4C(F)(F)F)c(C(=O)N(C)C)s3)c2cc1OC = -1.41
• CNC(=O)c1cccc(C#Cc2cncnc2Nc2ccc(OCc3cccc(F)c3)c(Cl)c2)c1 = 1.74
• O=C(Nc1n[nH]c2cc(-c3ccc(F)cc3)ccc12)C1CC1 = 1.99
• CCNC(=O)O[C@H]1CN[C@H](C#Cc2cc3ncnc(Nc4ccc(OCc5cccc(F)c5)c(Cl)c4)c3s2)C1 = 2.06
• COc1cc2c(cc1Nc1nc(Nc3ccsc3C(N)=O)c3cc[nH]c3n1)N(C(=O)CN(C)C)CCC2(C)C = 4.2
• COc1cc(Nc2nccc(Nc3ccc4c(C)n[nH]c4c3)n2)cc(OC)c1OC = 57.8
• c1ccc(COc2ccc(Nc3ncnc4ccc(-c5ccco5)cc34)cc2)cc1 = 0.33
• CCOc1ccc2c(-c3ccnc(Nc4cccc(C(F)(F)F)c4)n3)cnn2n1 = -0.37
• Nc1ncc(-c2cccc(S(N)(=O)=O)c2)c2scc(-c3ccc(F)c(Cl)c3)c12 = 1.34

====

Quick reference for inhibition among some compounds
Molecular target: Serine/threonine-protein kinase PAK 1 (Homo sapiens) (UniProt Q13153);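 further: reported values are mean percent inhibition of PAK1 activity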
Sequence (Q13153 whole entry): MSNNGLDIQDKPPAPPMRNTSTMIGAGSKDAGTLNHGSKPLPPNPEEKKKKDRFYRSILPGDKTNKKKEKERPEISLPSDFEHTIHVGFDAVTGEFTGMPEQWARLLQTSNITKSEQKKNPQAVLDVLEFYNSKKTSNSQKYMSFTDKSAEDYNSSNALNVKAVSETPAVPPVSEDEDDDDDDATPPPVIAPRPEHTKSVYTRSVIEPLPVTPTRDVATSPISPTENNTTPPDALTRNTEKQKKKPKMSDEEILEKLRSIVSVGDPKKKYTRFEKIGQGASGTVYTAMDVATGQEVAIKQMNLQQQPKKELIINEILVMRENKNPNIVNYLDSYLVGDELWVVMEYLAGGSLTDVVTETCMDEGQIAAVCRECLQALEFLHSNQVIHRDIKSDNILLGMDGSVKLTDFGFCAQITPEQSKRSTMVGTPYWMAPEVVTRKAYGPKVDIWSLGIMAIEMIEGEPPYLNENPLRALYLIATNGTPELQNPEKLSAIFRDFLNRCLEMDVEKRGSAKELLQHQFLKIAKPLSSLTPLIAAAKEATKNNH
Conditions: at 1 µM
measurement-kind: inhibition

* CCCN(CCS(C)(=O)=O)Cc1ccc(-c2ccc3ncnc(Nc4ccc(OCc5cccc(F)c5)c(Cl)c4)c3c2)o1 | 3.91%
* Fc1ccc(-c2nn3ccccc3c2-c2ccncc2)cc1 | 1.62%
* CCNC(=O)O[C@H]1CN[C@H](C#Cc2cc3ncnc(Nc4ccc(OCc5cccc(F)c5)c(Cl)c4)c3s2)C1 | 8.64%
* COc1ccc2[nH]c3c4[nH]c5ccc(OC)cc5c4c4c(c3c2c1)C(=O)NC4=O | 7.72%
* NC(=O)c1sc(-n2cnc3ccc(C(F)(F)F)cc32)cc1OCc1ccccc1Br | 7.84%
* COC(=O)c1sc(-n2cnc3cc(OC)c(OC)cc32)cc1OCc1ccccc1C(F)(F)F | 9.12%
* COc1cc2ncn(-c3cc(OCc4ccccc4C(F)(F)F)c(C(=O)N(C)C)s3)c2cc1OC | -2.04%
* COc1cc(/C=N/Nc2ncnc3[nH]ncc23)ccc1O | 6.64%
* CCN(CC)S(=O)(=O)c1ccc(OC)c(Nc2ncc(-c3ccccc3)o2)c1 | 3.9%

====

Molecular target: MAP kinase-activated protein kinase 5 (Homo sapiens) (UniProt Q8IW41);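 further: reported values are mean PRAK inhibition figures from the GSK PKIS screen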
Sequence (Q8IW41 whole entry): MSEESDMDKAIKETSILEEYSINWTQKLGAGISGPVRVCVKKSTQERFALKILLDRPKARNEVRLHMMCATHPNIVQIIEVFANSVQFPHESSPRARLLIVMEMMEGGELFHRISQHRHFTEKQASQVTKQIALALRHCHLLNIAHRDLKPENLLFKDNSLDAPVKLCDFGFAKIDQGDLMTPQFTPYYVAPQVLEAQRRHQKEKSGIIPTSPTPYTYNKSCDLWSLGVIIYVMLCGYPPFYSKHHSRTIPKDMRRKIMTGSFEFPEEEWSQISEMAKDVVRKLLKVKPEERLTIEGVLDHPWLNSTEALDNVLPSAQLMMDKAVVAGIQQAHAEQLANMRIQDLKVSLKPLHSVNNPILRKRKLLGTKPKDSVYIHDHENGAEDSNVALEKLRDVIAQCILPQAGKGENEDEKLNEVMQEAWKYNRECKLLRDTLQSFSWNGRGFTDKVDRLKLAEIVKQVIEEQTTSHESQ
Details: at 0.1 µM
Quick reference for inhibition among some compounds
measurement-kind: inhibition (%)

* CC(=O)Nc1cccc(C#Cc2cncnc2Nc2ccc(OCc3cccc(F)c3)c(Cl)c2)c1 | 0.16
* COc1cc2c(cc1Nc1nc(Nc3ccsc3C(N)=O)c3cc[nH]c3n1)N(C(=O)CN(C)C)CCC2(C)C | 1.65
* CN(C)CCOc1ccc(-c2nc(-c3ccncc3)c(-c3ccc4c(c3)CC/C4=N\O)[nH]2)cc1 | 1.42
* [O-][S+]1CCN(Cc2ccc(-c3ccc4ncnc(Nc5ccc(OCc6cccc(F)c6)c(Cl)c5)c4c3)o2)CC1 | 2
* Cc1ccc2c(-c3ccnc(Nc4ccccc4)n3)c(-c3ccc(F)cc3)nn2n1 | 0.87
* CC1=C(C(=O)Nc2cc(Cl)c3[nH]ncc3c2)C(c2ccc(C(F)(F)F)cc2)CC(=O)N1 (stereo not given) | 1.37
* CS(=O)(=O)CCNCc1ccc(-c2ccc3ncnc(Nc4ccc(OCc5ccccc5)c(C(F)(F)F)c4)c3c2)o1 | 1.1
* Cc1cccc(Nc2ncc(-c3ccccc3)o2)c1 | 1.69
* O=S(=O)(CCNCc1ccc(-c2ccc3ncnc(Nc4ccc(OCc5cccc(F)c5)c(Cl)c4)c3c2)o1)c1ccccc1 | 2.07
* COc1cccc(-n2ncc3c(N/N=C/c4ccc(F)cc4)ncnc32)c1 | 1.85
* CNC(=O)c1cc(-c2ccc(F)cc2)cc(-c2ccc(S(=O)(=O)N3CCCC3)cc2)c1N | 0.53
* Cc1ccc(O)cc1Nc1ccnc2cc(-c3ccccn3)ccc12 | 1.2
* COC(=O)Nc1nc2ccc(Oc3ccc(NC(=O)Nc4cccc(Cl)c4)cc3)cc2[nH]1 | 0.18
* O=C(Nc1n[nH]c2cc(-c3ccc(F)cc3)ccc12)C1CC1 | 1.06
* CCNC(=O)O[C@H]1CN[C@H](C#Cc2cc3ncnc(Nc4ccc(OCc5cccc(F)c5)c(Cl)c4)c3s2)C1 | 0.89
* CCn1c(-c2nonc2N)nc2c(C#CC(C)(C)O)nc(OC[C@H](N)c3ccccc3)cc21 | 0.68
* COc1ccc(-c2cc(-c3c[nH]nc3-c3ccccn3)ccn2)cc1 | 2.14
* COC(=O)c1sc(-n2cnc3cc(OC)c(OC)cc32)cc1OCc1ccccc1C(F)(F)F | 2.02
* Cc1cccc2c1NC(=O)/C2=N\Nc1ccc(S(N)(=O)=O)cc1 | 0.84
* NS(=O)(=O)c1ccc(Nc2ncc(-c3ccccc3)o2)cc1 | 1.46
* N#Cc1c(NC(=O)c2ccc(F)cc2)sc2c1CCCC2 | 0.52
* c1ccc(-c2nc3n(c2-c2ccc4c(c2)OCO4)CCC3)nc1 | 0.81
* O=C(O[C@H]1CN[C@H](C#Cc2cc3ncnc(Nc4ccc(Cc5ccccc5)cc4)c3s2)C1)N1CCOCC1 | 0.58
* COc1cc(N2CCN(C(C)C)CC2)ccc1Nc1nc(Nc2ccc(F)cc2C(N)=O)c2cc[nH]c2n1 | 1.95
* FC(F)(F)c1cccc(-c2nn3ncccc3c2-c2ccnc(Nc3ccc4c(c3)OCCO4)n2)c1 | 0.49

====

Quick reference for inhibition among some compounds
Target: Serine/threonine-protein kinase pim-2 (Homo sapiens);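 further: each value is a mean of the inhibition measurements against the kinase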
Details: at 1 µM
measurement-kind: inhibition

- COc1ccc(-c2oc3ncnc(N)c3c2-c2ccc(NC(=O)Nc3cc(C(F)(F)F)ccc3F)cc2)cc1: 1.06%
- CCCN1CCC(c2ccc(Nc3nc(Nc4cc(F)ccc4C(N)=O)c4cc[nH]c4n3)c(OC)c2)CC1: 13.3%
- NS(=O)(=O)c1ccc(Nc2ncc(-c3ccccc3)o2)cc1: 0.32%
- CCOc1ccc2c(-c3ccnc(Nc4cccc(C(F)(F)F)c4)n3)cnn2n1: -0.33%
- CN1CCC(n2cnc(-c3ccc(F)cc3)c2-c2ccnc(Nc3ccccc3)n2)CC1: 0.35%
- CC1=C(C(=O)Nc2cc(Cl)c3[nH]ncc3c2)C(c2ccc(C(F)(F)F)cc2)CC(=O)N1 (stereo unspecified): -0.24%

====

Target: Phosphorylase b kinase gamma catalytic chain, liver/testis isoform (Homo sapiens) (UniProt P15735);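 further: values are mean inhibition of PHKG2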
Sequence (whole entry): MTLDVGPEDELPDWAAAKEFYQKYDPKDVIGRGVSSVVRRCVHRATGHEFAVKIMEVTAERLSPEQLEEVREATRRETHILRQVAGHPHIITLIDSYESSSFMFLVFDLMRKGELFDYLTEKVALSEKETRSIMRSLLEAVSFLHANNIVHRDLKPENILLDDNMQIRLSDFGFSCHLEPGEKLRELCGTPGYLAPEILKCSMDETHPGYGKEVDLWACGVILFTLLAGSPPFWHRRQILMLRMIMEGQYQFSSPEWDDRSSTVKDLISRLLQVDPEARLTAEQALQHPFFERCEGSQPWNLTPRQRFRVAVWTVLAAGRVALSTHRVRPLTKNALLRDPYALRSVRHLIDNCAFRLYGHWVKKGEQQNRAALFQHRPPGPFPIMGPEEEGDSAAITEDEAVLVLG
Conditions: at 0.1 µM
measurement-kind: inhibition

• NS(=O)(=O)c1ccc(Nc2ncc(-c3ccccc3)o2)cc1 = 4.88%
• NC(=O)c1sc(-n2cnc3ccc(C(F)(F)F)cc32)cc1OCc1ccccc1Br = 5.06%
• CCn1c(-c2nonc2N)nc2cnc(Oc3cccc(NC(=O)c4ccc(N(C)C)cc4)c3)cc21 = 1.21%
• Cc1ccc2c(-c3ccnc(Nc4ccccc4)n3)c(-c3ccc(F)cc3)nn2n1 = 4.39%
• c1ccc(COc2ccc(Nc3ncnc4ccc(-c5ccco5)cc34)cc2)cc1 = 1.07%
• Cc1cccc(Nc2ncc(-c3ccccc3)o2)c1 = 2.92%
• COc1cccc(-n2ncc3c(N/N=C/c4ccc(F)cc4)ncnc32)c1 = 5.34%
• Nc1nc(-c2cccc(Cl)c2)c(-c2ccc3ncccc3n2)s1 = 5.42%
• COc1ccc(-c2cc3c(N)ncnc3o2)cc1 = -1.54%
• COc1ccc2[nH]c3c4[nH]c5ccc(OC)cc5c4c4c(c3c2c1)C(=O)NC4=O = 9.06%
• CNC(=O)c1cncc(/C=C/c2ccccc2Cl)c1 = 1.88%
• CCN(CC)S(=O)(=O)c1ccc(OC)c(Nc2ncc(-c3ccccc3)o2)c1 = 2.23%
• CCNC(=O)O[C@H]1CN[C@H](C#Cc2cc3ncnc(Nc4ccc(OCc5cccc(F)c5)c(Cl)c4)c3s2)C1 = 3.66%
• CS(=O)(=O)CCNCc1coc(-c2ccc3ncnc(Nc4ccc(OCc5ccccc5)cc4)c3c2)c1 = 3.94%
• O=C(O[C@H]1CN[C@H](C#Cc2cc3ncnc(Nc4ccc(Cc5ccccc5)cc4)c3s2)C1)N1CCOCC1 = 3.27%
• COc1cc(Nc2nccc(Nc3ccc4c(C)n[nH]c4c3)n2)cc(OC)c1OC = 2.27%
• CC(=O)NCc1cccc(C#Cc2cncnc2Nc2ccc(OCc3cccc(F)c3)c(Cl)c2)c1 = -0.18%
• COc1ccc(-c2nn3ncccc3c2-c2ccnc(Nc3ccc4c(c3)OCCO4)n2)cc1 = 0.91%
• Cc1ccc(O)cc1Nc1ccnc2cc(-c3ccccn3)ccc12 = 5.58%
• CC(C)COC(=O)c1ccc2c(c1)/C(=C/Nc1ccc(S(N)(=O)=O)cc1)C(=O)N2 = -1.63%
• Fc1ccc(-c2cc(-c3c[nH]nc3-c3ccccn3)ccn2)cc1 = 5.07%
